The reported numbers originate from patent US12110279B2.

- TARGET_OF_ASSAY: recombinant human MAO-B (monoamine oxidase-B) (Homo sapiens, UniProt P27338)
- Construct: purchased Sigma-Aldrich
- Sequence (P27338 whole entry): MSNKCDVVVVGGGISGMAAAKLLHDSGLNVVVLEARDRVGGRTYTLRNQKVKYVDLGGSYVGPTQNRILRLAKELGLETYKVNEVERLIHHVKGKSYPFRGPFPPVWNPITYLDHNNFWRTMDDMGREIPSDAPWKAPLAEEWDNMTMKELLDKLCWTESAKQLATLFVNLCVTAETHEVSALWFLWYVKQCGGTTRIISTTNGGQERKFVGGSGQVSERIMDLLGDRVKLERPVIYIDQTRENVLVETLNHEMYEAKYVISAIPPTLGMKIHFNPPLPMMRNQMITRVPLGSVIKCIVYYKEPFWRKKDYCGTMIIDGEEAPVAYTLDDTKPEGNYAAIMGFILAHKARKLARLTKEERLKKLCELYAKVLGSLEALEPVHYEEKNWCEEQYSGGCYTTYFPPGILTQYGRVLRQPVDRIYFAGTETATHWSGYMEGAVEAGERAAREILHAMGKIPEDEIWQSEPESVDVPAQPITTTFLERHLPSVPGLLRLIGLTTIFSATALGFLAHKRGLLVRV
- MEASUREMENT_PROTOCOL: Amplex Red HRP-coupled amine oxidase activity evaluation, recombinant human MAO-B
- Assay type: biochemical
- APPLIED_CONDITIONS: substrate 1 mM benzylamine; read-out: Inhibitory Activity (IC50, nM) MAO-B
Counter-ions that a name gives are not always drawn.
Rule: IC50 below 4000 nM gives T. Equal to or above 4000 nM gives F.

Worked examples, 4 compounds total:
- COMPOUND: "CS(=O)(=O)c1ccc(-c2ccc(Cn3nnn(CC(CN)=C(F)F)c3=O)s2)cc1 [Example 43, trifluoroacetate]"
  CLASS_NAME: "F"
- COMPOUND: "CCn1cc(-c2cccc(Cn3nnn(CC(CN)=C(F)F)c3=O)c2)cn1 [Example 32, trifluoroacetate]"
  CLASS_NAME: "T"
- COMPOUND: "NCC(Cn1nnn(Cc2cccc(-c3ccc4c(c3)OCO4)c2)c1=O)=C(F)F [Example 30, trifluoroacetate]"
  CLASS_NAME: "T"
- COMPOUND: "CCn1cc(-c2csc(-n3nnn(CC(CN)=C(F)F)c3=O)c2)ccc1=O [Example 37, trifluoroacetate]"
  CLASS_NAME: "T"

Query: Bench note: check whether CS(=O)(=O)c1ccc(-c2cccc(Cn3nnn(CC(CN)=C(F)F)c3=O)c2)cc1 [Example 27, trifluoroacetate] shows IC50 below 4000 nM
Result: F

Query: Bench note: check whether Cc1cc(-c2cccc(-n3nnn(CC(CN)=C(F)F)c3=O)c2)cc2c1NC(=O)CC2 [Example 13, trifluoroacetate] shows IC50 below 4000 nM
Result: F

Query: Bench note: check whether CCn1cc(-c2cccc(-n3nnn(CC(CN)=C(F)F)c3=O)c2)ccc1=O [Example 12, di-trifluoroacetate] shows IC50 below 4000 nM
Result: F

Query: Bench note: check whether Cc1nn(CC(CN)=C(F)F)c(=O)n1Cc1ccc(-c2ccc(S(C)(=O)=O)cc2)s1 [Example 2, trifluoroacetate] shows IC50 below 4000 nM
Result: F

Query: Bench note: check whether Cc1cc(-c2csc(-n3nnn(CC(CN)=C(F)F)c3=O)c2)cc2c1NC(=O)CC2 [Example 40, trifluoroacetate] shows IC50 below 4000 nM
Result: T

Query: Bench note: check whether CN1C(=O)CCc2cc(-c3ccc(-n4nnn(CC(CN)=C(F)F)c4=O)cc3)ccc21 [Example 21, trifluoroacetate] shows IC50 below 4000 nM
Result: T

Query: Bench note: check whether CS(=O)(=O)c1ccc(-c2csc(-n3nnn(CC(CN)=C(F)F)c3=O)c2)cc1 [Example 35, trifluoroacetate] shows IC50 below 4000 nM
Result: T

Query: Bench note: check whether CCn1cc(-c2csc(-n3nnn(CC(CN)=C(F)F)c3=O)c2)cn1 [Example 42, trifluoroacetate] shows IC50 below 4000 nM
Result: T

Query: Bench note: check whether Cc1nn(CC(CN)=C(F)F)c(=O)n1Cc1ccc(-c2ccc(N(C)C)nc2)s1 [Example 5, trifluoroacetate] shows IC50 below 4000 nM
Result: F

###

- TARGET_OF_ASSAY: recombinant human DAO (diamine oxidase) (Homo sapiens, UniProt P19801)
- Construct: purchased R&D systems
- Sequence (P19801 20-751): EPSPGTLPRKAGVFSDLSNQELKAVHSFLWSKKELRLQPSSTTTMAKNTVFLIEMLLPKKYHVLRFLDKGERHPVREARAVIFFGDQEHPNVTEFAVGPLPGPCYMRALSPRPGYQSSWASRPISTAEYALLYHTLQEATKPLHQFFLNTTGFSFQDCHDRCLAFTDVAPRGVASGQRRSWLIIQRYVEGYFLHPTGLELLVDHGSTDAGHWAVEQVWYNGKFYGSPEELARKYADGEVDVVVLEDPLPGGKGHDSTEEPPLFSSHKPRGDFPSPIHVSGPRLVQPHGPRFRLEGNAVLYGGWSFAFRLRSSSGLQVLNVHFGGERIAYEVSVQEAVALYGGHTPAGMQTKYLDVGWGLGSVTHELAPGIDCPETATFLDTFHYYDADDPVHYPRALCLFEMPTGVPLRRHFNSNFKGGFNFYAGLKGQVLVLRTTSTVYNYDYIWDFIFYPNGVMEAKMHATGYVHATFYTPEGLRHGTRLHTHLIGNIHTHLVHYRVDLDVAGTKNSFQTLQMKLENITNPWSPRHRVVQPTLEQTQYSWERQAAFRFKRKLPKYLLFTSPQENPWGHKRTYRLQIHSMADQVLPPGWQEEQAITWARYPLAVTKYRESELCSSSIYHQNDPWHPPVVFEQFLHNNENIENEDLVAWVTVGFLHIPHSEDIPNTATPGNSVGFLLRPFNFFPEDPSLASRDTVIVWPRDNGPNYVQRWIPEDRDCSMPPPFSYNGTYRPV
- MEASUREMENT_PROTOCOL: Amplex Red HRP-coupled amine oxidase activity evaluation, recombinant human DAO
- Type: biochemical
Where a name gives a salt, the structure may show the parent alone.
List of pIC50 values.
// pIC50 is dimensionless: -log10 of concentration (M)

Recorded results for 3 compounds are shown here.
- COMPOUND: "NCC(Cn1nnn(-c2cccc(-c3ccc(N4CCNCC4)cc3)c2)c1=O)=C(F)F [Example 11, trifluoroacetate]"
  pIC50: 6.45
- COMPOUND: "CCn1cc(-c2cccc(-n3nnn(CC(CN)=C(F)F)c3=O)c2)ccc1=O [Example 12, di-trifluoroacetate]"
  pIC50: 8.00
- COMPOUND: "CCn1cc(-c2ccc(-n3nnn(CC(CN)=C(F)F)c3=O)cc2)cn1 [Example 22, trifluoroacetate]"
  pIC50: 7.02

Now, please, on to the next compound.
Memo: CS(=O)(=O)c1ccc(-c2cccc(-n3nnn(CC(CN)=C(F)F)c3=O)c2)cc1 [Example 10, trifluoroacetate] , reported pIC50: 8.66
